Assay text: in vivo
Test parameters: male, New Zealand White Hra:(NZW)SPF, rabbit, plasma, intramuscular, 0.3 mg, Concentration (ng/mL), plasma epinephrine, Group 7, dose 0.3 mg, subject 701, male, Day 1, hour 0.5, LLQ 2 ng/mL
Readout name: concentration at 0.5 h (ng/mL)
Report only the number, with the unit ng/mL understood.

Which value of concentration at 0.5 h has been reported for CNC[C@H](O)c1ccc(O)c(O)c1 [Epinephrine] in the records?
2.06

====

Assay text: in vivo
Test parameters: male, New Zealand White Hra:(NZW)SPF, rabbit, plasma, intramuscular, 0.3 mg, Concentration (ng/mL), plasma epinephrine, Group 7, dose 0.3 mg, subject 703, male, Day 1, hour 0.25, LLQ 1 ng/mL
Readout name: concentration at 0.25 h (ng/mL)
Report only the number, with the unit ng/mL understood.

Which value of concentration at 0.25 h has been reported for CNC[C@H](O)c1ccc(O)c(O)c1 [Epinephrine] in the records?
3.5

====

Assay text: in vivo
Test parameters: male, New Zealand White Hra:(NZW)SPF, rabbit, plasma, intramuscular, 0.3 mg, Concentration (ng/mL), plasma epinephrine, Group 7, dose 0.3 mg, subject 701, male, Day 1, hour 0, LLQ 2 ng/mL
Readout name: concentration at 0 h (ng/mL)
Report only the number, with the unit ng/mL understood.

Which value of concentration at 0 h has been reported for CNC[C@H](O)c1ccc(O)c(O)c1 [Epinephrine] in the records?
2.48

====

Assay text: in vivo
Test parameters: male, New Zealand White Hra:(NZW)SPF, rabbit, plasma, intramuscular, 0.3 mg, Concentration (ng/mL), plasma epinephrine, Group 7, dose 0.3 mg, subject 703, male, Day 1, hour 0.033, LLQ 1 ng/mL
Readout name: concentration at 0.033 h

Which value of concentration at 0.033 h has been reported for CNC[C@H](O)c1ccc(O)c(O)c1 [Epinephrine] in the records?
8.06 ng/mL

====

Assay text: in vivo
Test parameters: male, New Zealand White Hra:(NZW)SPF, rabbit, plasma, intramuscular, 0.3 mg, Concentration (ng/mL), plasma epinephrine, Group 7, dose 0.3 mg, subject 703, male, Day 1, hour 1, LLQ 1 ng/mL
Readout name: concentration at 1 h (ng/mL)
Report only the number, with the unit ng/mL understood.

Which value of concentration at 1 h has been reported for CNC[C@H](O)c1ccc(O)c(O)c1 [Epinephrine] in the records?
5.17

====

Assay text: in vivo
Test parameters: male, New Zealand White Hra:(NZW)SPF, rabbit, plasma, intramuscular, 0.3 mg, Concentration (ng/mL), plasma epinephrine, Group 7, dose 0.3 mg, subject 701, male, Day 1, hour 0.167, LLQ 2 ng/mL
Readout name: concentration at 0.167 h (ng/mL)
Report only the number, with the unit ng/mL understood.

Which value of concentration at 0.167 h has been reported for CNC[C@H](O)c1ccc(O)c(O)c1 [Epinephrine] in the records?
4.76

====

Assay text: in vivo
Test parameters: male, New Zealand White Hra:(NZW)SPF, rabbit, plasma, intramuscular, 0.3 mg, Concentration (ng/mL), plasma epinephrine, Group 7, dose 0.3 mg, subject 703, male, Day 1, hour 0.167, LLQ 1 ng/mL
Readout name: concentration at 0.167 h (ng/mL)
Report only the number, with the unit ng/mL understood.

Which value of concentration at 0.167 h has been reported for CNC[C@H](O)c1ccc(O)c(O)c1 [Epinephrine] in the records?
2.32
